Assay: ATG_SREBP_CIS: Attagene CIS-FACTORIAL HepG2 Assay for human Sterol Regulatory Element Binding (SREBP) (AID 2282962)
Settings: HepG2 Attagene cis-factorial SREBP reporter, mRNA; actives raise or lower the signal
Activity calls are given as the source filed them. How the source made its calls: active means hit-call score of the fitted dose curve at least 0.9, where 1 is the maximum; inactive means score below 0.9.
reported-endpoint: AC50

# compound, result
data = [
    ("CN(C)c1ccc(C(=C2C=CC(=[N+](C)C)C=C2)c2ccc(N(C)C)cc2)cc1", "inactive"),
    ("Oc1ccccc1", "inactive"),
    ("CO[C@H]1/C=C/O[C@@]2(C)Oc3c(C)c(O)c4c(O)c(c(/C=N/N5CCN(C)CC5)c(O)c4c3C2=O)NC(=O)/C(C)=C\\C=C\\[C@H](C)[C@H](O)[C@@H](C)[C@@H](O)[C@@H](C)[C@H](OC(C)=O)[C@@H]1C", "inactive"),
    ("Clc1cc(Cl)c2c(c1)N=C1CCCCCN1C2", "inactive"),
    ("CC(C)(C)c1cc(/C=C2\\SC(N)=NC2=O)cc(C(C)(C)C)c1O", "18.2 µM (active)"),
    ("CCO[Si](CCCNC(N)=O)(OCC)OCC", "inactive"),
    ("CCCCCCCCCCCCO", "inactive"),
    ("O=C(O)c1ccccc1C(=O)OCc1ccccc1", "inactive"),
    ("CCN(Cc1cccc(S(=O)(=O)O)c1)c1ccc(C(=C2C=CC(=[N+](CC)Cc3cccc(S(=O)(=O)O)c3)C=C2)c2ccccc2S(=O)(=O)[O-])cc1", "inactive"),
    ("CCCCCCCCN(C)CCCCCCCC", "inactive"),
    ("O=C(O)c1ccccc1-n1cc(C(=O)O)c(=O)c2cc(Nc3c(F)cc(F)cc3Cl)c(Cl)cc21", "inactive"),
    ("CC1(C)NC(=O)N(c2ccc([N+](=O)[O-])c(C(F)(F)F)c2)C1=O", "inactive"),
    ("CCCCOC(=O)CC(CC(=O)OCCCC)(OC(C)=O)C(=O)OCCCC", "inactive"),
    ("CC[C@H](NC(=O)c1cc(F)ccc1NS(=O)(=O)c1cccc2cccnc12)c1ccccc1", "27.1 µM (active)"),
    ("CC(C)(C)c1csc(-c2cc3cc(OCc4ccccc4CC(=O)O)ccc3o2)n1", "6.91 µM (active)"),
    ("Cc1cc(F)ccc1-c1cc(N2CC[C@@H](O)[C@H]2CO)ncc1N(C)C(=O)C(C)(C)c1cc(C(F)(F)F)cc(C(F)(F)F)c1", "inactive"),
    ("CN(C)C(=O)C1(N2CCCCC2)CCN(CC[C@@]2(c3ccc(Cl)c(Cl)c3)CN(C(=O)c3ccccc3)CCO2)CC1", "0.436 µM (active)"),
    ("CCOC(=O)O[C@H](C)OC(=O)c1ccc2c(c1)cc(C(=O)NC1CCN(C(C)C)CC1)n2Cc1cc(-c2ccc(Cl)s2)on1", "33 µM (active)"),
    ("NC(=O)c1nc(-c2cccc(-c3cc(F)ccc3OCC(F)(F)C(F)(F)F)c2)n[nH]1", "10.3 µM (active)"),
    ("CC/C(=C(/CC)c1ccc(O)cc1)c1ccc(O)cc1", "inactive"),
    ("CC(O)CC(C)(C)O (stereo unspecified)", "inactive"),
    ("CCCOC(=O)c1cc(O)c(O)c(O)c1", "inactive"),
    ("O=c1ccc2ccccc2o1", "inactive"),
    ("O=CCCCC=O", "inactive"),
    ("NCc1cccc(C2CCN(C(=O)c3ccc(C#Cc4ccccc4F)o3)CC2)c1", "8 µM (active)"),
    ("c1ccc2ccccc2c1", "inactive"),
    ("Cc1cn([C@H]2C[C@H](N=[N+]=[N-])[C@@H](CO)O2)c(=O)[nH]c1=O", "inactive"),
    ("CN1C(=O)CC[C@H]1c1cccnc1", "inactive"),
    ("CC(=O)N1CCN(c2ccc(OC[C@H]3CO[C@](Cn4ccnc4)(c4ccc(Cl)cc4Cl)O3)cc2)CC1", "5.24 µM (active)"),
    ("Cc1c2ccccc2c(C)c2c1ccc1ccccc12", "inactive"),
    ("COc1ccc2cc(S(=O)(=O)N[C@H](CC(=O)N[C@H](Cc3ccc(CN4[C@H](C)CCC[C@@H]4C)cc3)C(=O)N(C)C(C)C)c3ccc4c(c3)OCO4)ccc2c1", "0.564 µM (active)"),
    ("CCCCCCCCCCCO", "inactive"),
    ("CCCCCCCCOC(=O)c1cc(O)c(O)c(O)c1", "inactive"),
    ("CN(C[C@@H](CC[N+]12CCC(C3CCCCC3)(CC1)CC2)c1ccc(Cl)c(Cl)c1)C(=O)c1cc(C(F)(F)F)cc(C(F)(F)F)c1", "inactive"),
    ("O=C(O)Cn1c(=O)n(Cc2ccc(Br)cc2F)c(=O)c2ccc(Cl)cc21", "inactive"),
    ("CCCCCCCCOc1ccc(C(=O)c2ccccc2)c(O)c1", "inactive"),
]
